target or test system: GDP-bound KRAS wild-type protein (Homo sapiens)
Sequence (P01116 1-188 isoform P01116-2): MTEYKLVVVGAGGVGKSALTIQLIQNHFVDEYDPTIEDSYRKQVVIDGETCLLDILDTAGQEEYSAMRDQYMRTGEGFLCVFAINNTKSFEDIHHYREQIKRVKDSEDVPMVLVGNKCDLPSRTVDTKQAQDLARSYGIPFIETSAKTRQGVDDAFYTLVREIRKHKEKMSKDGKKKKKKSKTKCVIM
assay comment: Binding to KRAS by surface plasmon resonance (SPR), dissociation constant KD
setup conditions: 1:1 binding model
*1 amine or outer side, *2 acyl side, *3 side chain or, on linkers, in order; H or OH if unused. Where a SMILES comes first, the peptide text is derived from it. Bridges are numbered along the chain shown (N, C = ends). [ ]: non-standard residue; d: D form. The star is where a group is joined. hPhe(3-Cl-4-CF3) = N[C@@H](CCc1ccc(C(F)(F)F)c(Cl)c1)C(=O)O; NPrPhe(4-CF3) = CCCN[C@@H](Cc1ccc(C(F)(F)F)cc1)C(=O)O; NMeGly(cPent) = CN[C@H](C(=O)O)C1CCCC1; X9 = CC1(C)CN([*:1])[C@@H]1C(=O)[*:2]; Hyp = O=C(O)[C@@H]1C[C@@H](O)CN1; NMeD = CN[C@@H](CC(=O)O)C(=O)O; NMeL = CN[C@@H](CC(C)C)C(=O)O; Morpholide = C1CN(*)CCO1; Ac5c = NC1(C(=O)O)CCCC1; Aze = O=C(O)[C@@H]1CCN1; Sar = CNCC(=O)O
measurement name: log10 of Kd (log10 of the value in nM)
Field: value | Transform: log10 | Quantity: Kd | Unit: nM

compound	target or test system	log10 of Kd
CCCN1C(=O)[C@@H]2CCN2C(=O)[C@H]2N(CC2(C)C)C(=O)[C@H]([C@@H](C)CC)NC(=O)[C@H](CC(C)C)N(C)C(=O)C[C@@H](C(=O)N2CCOCC2)N(C)C(=O)[C@H](C2CCCC2)N(C)C(=O)C2(CCCC2)NC(=O)[C@@H]2CCCN2C(=O)[C@H](CCc2ccc(C(F)(F)F)c(Cl)c2)NC(=O)CN(C)C(=O)[C@@H]1Cc1ccc(C(F)(F)F)cc1 [PP0277] ([NMeL]I[X9][Aze][NPrPhe(4-CF3)][Sar][hPhe(3-Cl-4-CF3)]P[Ac5c][NMeGly(cPent)][NMeD]-Morpholide; lactam N-11)	GDP-bound KRAS wild-type protein (Homo sapiens)	-0.28
CCO[C@@H]1C[C@H]2C(=O)NC3(CC(C)(C)C3)C(=O)N(C)[C@@H](C(CC)CC)C(=O)N(C)[C@H](C(=O)N(C)C)CC(=O)N(C)[C@@H](COC)C(=O)N[C@@H]([C@@H](C)CC)C(=O)N3CCC[C@H]3C(=O)N(C)[C@H]3C/C=C\CCN(C3=O)[C@@H](Cc3ccc(C(F)(F)F)cc3)C(=O)N(C)CC(=O)N[C@@H](CCc3ccc(Cl)c(Cl)c3)C(=O)N2C1 [PP2635]	GDP-bound KRAS wild-type protein (Homo sapiens)	-0.01
CCC[C@H]1C(=O)N[C@@H]([C@@H](C)CC)C(=O)N2CCC[C@H]2C(=O)N(C)[C@H]2C/C=C\CCN(C2=O)[C@@H](Cc2ccc(C(F)F)cc2)C(=O)N(C)CC(=O)N[C@@H](CCc2ccc(Cl)c(Cl)c2)C(=O)N2C[C@H](OC3CCC3)C[C@H]2C(=O)NC2(CC(C)(C)C2)C(=O)N(C)[C@@H](C(CC)CC)C(=O)N(C)[C@H](C(=O)N(C)C)CC(=O)N1C [PP2646]	GDP-bound KRAS wild-type protein (Homo sapiens)	0.20
CCC[C@H]1C(=O)N[C@@H](C2CCCC2)C(=O)N(C)CC(=O)N(C)[C@H]2C/C=C\CCN(C2=O)[C@@H](Cc2ccc(C)cc2)C(=O)N(C)CC(=O)N[C@@H](CCc2cc(F)c(C(F)(F)F)c(F)c2)C(=O)N2C[C@H](OCC)C[C@H]2C(=O)NC2(CC(C)(C)C2)C(=O)N(C)[C@@H](C2CCCC2)C(=O)N(C)[C@H](C(=O)N(C)C)CC(=O)N1C [PP2988]	GDP-bound KRAS wild-type protein (Homo sapiens)	-0.54
CCOC[C@H]1C(=O)N[C@@H]([C@@H](C)CC)C(=O)N(C)CC(=O)N(C)[C@H]2C/C=C\CCN(C2=O)[C@@H](CC2CCCCC2)C(=O)N(C)CC(=O)N[C@@H](CCc2cc(F)c(C(F)(F)F)c(F)c2)C(=O)N2C[C@H](OCC)C[C@H]2C(=O)NC2(CC(C)(C)C2)C(=O)N(C)[C@@H](C(CC)CC)C(=O)N(C)[C@H](C(=O)N(C)C)CC(=O)N1C [PP2479]	GDP-bound KRAS wild-type protein (Homo sapiens)	0.15

INPUT: Need log10 of Kd of CCCN1C(=O)CN(C)C(=O)[C@@H]2CCN2C(=O)[C@H]([C@@H](C)CC)NC(=O)[C@H](CC(C)C)N(C)C(=O)C[C@@H](C(=O)N2CCOCC2)N(C)C(=O)[C@H](C2CCCC2)N(C)C(=O)C2(CCCC2)NC(=O)[C@@H]2C[C@@H](OC)CN2C(=O)[C@H](CCc2ccc(C(F)(F)F)c(Cl)c2)NC(=O)CN(C)C(=O)[C@@H]1Cc1ccc(C(F)(F)F)cc1 [PP0309] ([NMeL]I[Aze][Sar][NPrPhe(4-CF3)][Sar][hPhe(3-Cl-4-CF3)][Hyp](Me)[Ac5c][NMeGly(cPent)][NMeD]-Morpholide; lactam N-11) , thanks.
OUTPUT: -0.54

INPUT: Need log10 of Kd of CC[C@H](C)[C@@H]1NC(=O)[C@H](CC(C)C)N(C)C(=O)C[C@@H](C(=O)N2CCOCC2)N(C)C(=O)[C@H](C2CCCC2)N(C)C(=O)C2(CCCC2)NC(=O)[C@@H]2CCCN2C(=O)[C@H](CCc2ccc(C(F)(F)F)c(Cl)c2)NC(=O)CN(C)C(=O)[C@H](Cc2ccc(C(F)(F)F)cc2)N2CCCCC[C@@H](C2=O)N(C)C(=O)CN(C)C1=O [PP0319] , thanks.
OUTPUT: 0.26

INPUT: Need log10 of Kd of CCC[C@H]1C(=O)N[C@@H]([C@@H](C)CC)C(=O)N(C2CC2)CC(=O)N(C)[C@H]2C/C=C\CCN(C2=O)[C@@H](Cc2ccc(C)cc2)C(=O)N(C)CC(=O)N[C@@H](CCc2cc(F)c(C(F)(F)F)c(F)c2)C(=O)N2C[C@H](OC3CCC3)C[C@H]2C(=O)NC2(CC(C)(C)C2)C(=O)N(C)[C@@H](C2CCCC2)C(=O)N(C)[C@H](C(=O)N(C)C)CC(=O)N1C [PP2614] , thanks.
OUTPUT: -0.57

INPUT: Need log10 of Kd of CCO[C@@H]1C[C@H]2C(=O)NC3(CC(C)(C)C3)C(=O)N(C)[C@@H](C3CCCC3)C(=O)N(C)[C@H](C(=O)N(C)CC)CC(=O)N(C)[C@@H](CC(C)C)C(=O)N[C@@H]([C@@H](C)CC)C(=O)N(C)CC(=O)N(C)[C@H]3C/C=C\CCN(C3=O)[C@@H](Cc3ccc(C(F)F)cc3)C(=O)N(C)CC(=O)N[C@@H](CCc3cc(F)c(C(F)F)c(OC)c3)C(=O)N2C1 [PP3147] , thanks.
OUTPUT: -0.39

INPUT: Need log10 of Kd of CCOC[C@H]1C(=O)N[C@@H]([C@@H](C)CC)C(=O)N(C)CC(=O)N(C)[C@H]2C/C=C\CCN(C2=O)[C@@H](Cc2ccc(C)cc2)C(=O)N(C)CC(=O)N[C@@H](CCc2ccc(C(F)(F)F)c(Cl)c2)C(=O)N2C[C@@H](C)C[C@H]2C(=O)NC2(CC(C)(C)C2)C(=O)N(C)[C@@H](C2CCCC2)C(=O)N(C)[C@H](C(=O)N(C)C)CC(=O)N1C [PP2394] , thanks.
OUTPUT: -0.92
